System: PfIESI-1 RRM domain (Plasmodium falciparum ortholog aa 875-1232, GST fusion)
Assay: RBNS R-value (6-mer enrichment in protein-bound RNA vs input library) (ratio); higher = stronger binding preference
Details: protein concentration: 1000 nM
In all, about 4,100 sequences were measured (“RBNS R-value (6-mer enrichment in protein-bound RNA vs input library)”: median about 0.99, highest 2% from about 1.4 on). This is one part of a sample in which the highest values are shown more often than they occur.
Endpoint label: RBNS R-value
Give the figure by itself; no unit, no explanation.

Incoming: Data request, read-out RBNS R-value, for `UGAUGU`
Outgoing: 2.1

Incoming: Data request, read-out RBNS R-value, for `GUGCGC`
Outgoing: 0.975

Incoming: Data request, read-out RBNS R-value, for `GAAUUU`
Outgoing: 1.13

Incoming: Data request, read-out RBNS R-value, for `UAAAAA`
Outgoing: 1.05

Incoming: Data request, read-out RBNS R-value, for `UGAUAA`
Outgoing: 1.54

Incoming: Data request, read-out RBNS R-value, for `CAUUAA`
Outgoing: 0.751

Incoming: Data request, read-out RBNS R-value, for `CGAUAC`
Outgoing: 1.02

Incoming: Data request, read-out RBNS R-value, for `CCAACU`
Outgoing: 0.933

Incoming: Data request, read-out RBNS R-value, for `CAUUAC`
Outgoing: 0.761

Incoming: Data request, read-out RBNS R-value, for `GAUUAA`
Outgoing: 1.2

Incoming: Data request, read-out RBNS R-value, for `GGAUAC`
Outgoing: 0.995

Incoming: Data request, read-out RBNS R-value, for `GAUUAC`
Outgoing: 1.29

Incoming: Data request, read-out RBNS R-value, for `GGAUAG`
Outgoing: 0.995

Incoming: Data request, read-out RBNS R-value, for `AAUUAG`
Outgoing: 0.88

Incoming: Data request, read-out RBNS R-value, for `AGAUAG`
Outgoing: 1.04

Incoming: Data request, read-out RBNS R-value, for `AGCUGU`
Outgoing: 0.951

Incoming: Data request, read-out RBNS R-value, for `UGAUAG`
Outgoing: 1.65

Incoming: Data request, read-out RBNS R-value, for `CUCGAG`
Outgoing: 1.27

Incoming: Data request, read-out RBNS R-value, for `AGCAGG`
Outgoing: 1.12

Incoming: Data request, read-out RBNS R-value, for `UGAUAU`
Outgoing: 1.38

###

Test system: PfIESI-1 RRM domain (Plasmodium falciparum ortholog aa 875-1232, GST fusion)
Test: RBNS R-value (6-mer enrichment in protein-bound RNA vs input library) (ratio); higher = stronger binding preference; the methods of the paper give 50 / 100 / 500 nM protein instead
Conditions: protein concentration: 500 nM
Whole data set: some 4,100 sequences, median “RBNS R-value (6-mer enrichment in protein-bound RNA vs input library)” near 0.99, cut for the highest 2% near 1.4. Only a selection was taken, and the highest values are over-represented in it overall.
Cut-off 1 on RBNS R-value, inclusive. At or above means label 1; below means label 0.

Incoming: In plain terms: is recorded RBNS R-value at least 1 for `AAAAAU` ?
Outgoing: label 1

Incoming: In plain terms: is recorded RBNS R-value at least 1 for `UAGAAU` ?
Outgoing: label 1

Incoming: In plain terms: is recorded RBNS R-value at least 1 for `UGAGAA` ?
Outgoing: label 1

Incoming: In plain terms: is recorded RBNS R-value at least 1 for `UGGGUC` ?
Outgoing: label 0

Incoming: In plain terms: is recorded RBNS R-value at least 1 for `GUCAAG` ?
Outgoing: label 0

Incoming: In plain terms: is recorded RBNS R-value at least 1 for `GAACUG` ?
Outgoing: label 1

Incoming: In plain terms: is recorded RBNS R-value at least 1 for `AAUAAU` ?
Outgoing: label 0

Incoming: In plain terms: is recorded RBNS R-value at least 1 for `GUCUUC` ?
Outgoing: label 0

Incoming: In plain terms: is recorded RBNS R-value at least 1 for `CGGUCA` ?
Outgoing: label 0

Incoming: In plain terms: is recorded RBNS R-value at least 1 for `CGAUCA` ?
Outgoing: label 0

Incoming: In plain terms: is recorded RBNS R-value at least 1 for `ACCCCG` ?
Outgoing: label 1

Incoming: In plain terms: is recorded RBNS R-value at least 1 for `AGAGAA` ?
Outgoing: label 1

Incoming: In plain terms: is recorded RBNS R-value at least 1 for `GGAUGA` ?
Outgoing: label 1

Incoming: In plain terms: is recorded RBNS R-value at least 1 for `AACCCG` ?
Outgoing: label 1

Incoming: In plain terms: is recorded RBNS R-value at least 1 for `GAGAAG` ?
Outgoing: label 1

Incoming: In plain terms: is recorded RBNS R-value at least 1 for `CUUUGU` ?
Outgoing: label 0

Incoming: In plain terms: is recorded RBNS R-value at least 1 for `GUUGAG` ?
Outgoing: label 0

Incoming: In plain terms: is recorded RBNS R-value at least 1 for `UGCCCG` ?
Outgoing: label 1

Incoming: In plain terms: is recorded RBNS R-value at least 1 for `GAAAAU` ?
Outgoing: label 1

Incoming: In plain terms: is recorded RBNS R-value at least 1 for `UGAUGC` ?
Outgoing: label 1

Incoming: In plain terms: is recorded RBNS R-value at least 1 for `AUUGAG` ?
Outgoing: label 1

Incoming: In plain terms: is recorded RBNS R-value at least 1 for `UUUGAU` ?
Outgoing: label 1

Incoming: In plain terms: is recorded RBNS R-value at least 1 for `AGAAAU` ?
Outgoing: label 1

Incoming: In plain terms: is recorded RBNS R-value at least 1 for `ACCUAU` ?
Outgoing: label 0

Incoming: In plain terms: is recorded RBNS R-value at least 1 for `AAAGGG` ?
Outgoing: label 1

Incoming: In plain terms: is recorded RBNS R-value at least 1 for `GAAAAC` ?
Outgoing: label 1

Incoming: In plain terms: is recorded RBNS R-value at least 1 for `CGUGAC` ?
Outgoing: label 0

Incoming: In plain terms: is recorded RBNS R-value at least 1 for `UUUGAC` ?
Outgoing: label 1

Incoming: In plain terms: is recorded RBNS R-value at least 1 for `CGAUGA` ?
Outgoing: label 1

Incoming: In plain terms: is recorded RBNS R-value at least 1 for `CUUUGA` ?
Outgoing: label 1

Incoming: In plain terms: is recorded RBNS R-value at least 1 for `UAUGAC` ?
Outgoing: label 0

Incoming: In plain terms: is recorded RBNS R-value at least 1 for `AGAGAC` ?
Outgoing: label 1

Incoming: In plain terms: is recorded RBNS R-value at least 1 for `CACCCG` ?
Outgoing: label 1

Incoming: In plain terms: is recorded RBNS R-value at least 1 for `GAGAAA` ?
Outgoing: label 1

Incoming: In plain terms: is recorded RBNS R-value at least 1 for `AUUGAU` ?
Outgoing: label 1

Incoming: In plain terms: is recorded RBNS R-value at least 1 for `AGGACA` ?
Outgoing: label 1

Incoming: In plain terms: is recorded RBNS R-value at least 1 for `UGAGUG` ?
Outgoing: label 1

Incoming: In plain terms: is recorded RBNS R-value at least 1 for `UGAUGA` ?
Outgoing: label 1

Incoming: In plain terms: is recorded RBNS R-value at least 1 for `AUUGAC` ?
Outgoing: label 1

Incoming: In plain terms: is recorded RBNS R-value at least 1 for `AUUCUG` ?
Outgoing: label 1

Incoming: In plain terms: is recorded RBNS R-value at least 1 for `UAUUGA` ?
Outgoing: label 1

Incoming: In plain terms: is recorded RBNS R-value at least 1 for `AAUUGA` ?
Outgoing: label 1

Incoming: In plain terms: is recorded RBNS R-value at least 1 for `GGAUGC` ?
Outgoing: label 0

Incoming: In plain terms: is recorded RBNS R-value at least 1 for `UUUGAA` ?
Outgoing: label 1

Incoming: In plain terms: is recorded RBNS R-value at least 1 for `CGCCCG` ?
Outgoing: label 1

Incoming: In plain terms: is recorded RBNS R-value at least 1 for `AUUUGA` ?
Outgoing: label 1

Incoming: In plain terms: is recorded RBNS R-value at least 1 for `CAUUGA` ?
Outgoing: label 1

Incoming: In plain terms: is recorded RBNS R-value at least 1 for `AGAUGU` ?
Outgoing: label 1

Incoming: In plain terms: is recorded RBNS R-value at least 1 for `AGUCCC` ?
Outgoing: label 0

Incoming: In plain terms: is recorded RBNS R-value at least 1 for `GAUUGG` ?
Outgoing: label 1

Incoming: In plain terms: is recorded RBNS R-value at least 1 for `CUUGAU` ?
Outgoing: label 1

Incoming: In plain terms: is recorded RBNS R-value at least 1 for `GAUGAU` ?
Outgoing: label 1

Incoming: In plain terms: is recorded RBNS R-value at least 1 for `GAUUGC` ?
Outgoing: label 1

Incoming: In plain terms: is recorded RBNS R-value at least 1 for `GACGAG` ?
Outgoing: label 1

Incoming: In plain terms: is recorded RBNS R-value at least 1 for `GGUGAA` ?
Outgoing: label 1

Incoming: In plain terms: is recorded RBNS R-value at least 1 for `AGGGAG` ?
Outgoing: label 1

Incoming: In plain terms: is recorded RBNS R-value at least 1 for `CAGAGA` ?
Outgoing: label 1

Incoming: In plain terms: is recorded RBNS R-value at least 1 for `AAUGAA` ?
Outgoing: label 1

Incoming: In plain terms: is recorded RBNS R-value at least 1 for `UAGCUA` ?
Outgoing: label 0

Incoming: In plain terms: is recorded RBNS R-value at least 1 for `CUAUCU` ?
Outgoing: label 0

Incoming: In plain terms: is recorded RBNS R-value at least 1 for `AGAGAG` ?
Outgoing: label 1

Incoming: In plain terms: is recorded RBNS R-value at least 1 for `UAAAAC` ?
Outgoing: label 1

Incoming: In plain terms: is recorded RBNS R-value at least 1 for `AGUAGA` ?
Outgoing: label 1

Incoming: In plain terms: is recorded RBNS R-value at least 1 for `UUAUGC` ?
Outgoing: label 0

Incoming: In plain terms: is recorded RBNS R-value at least 1 for `UCUAGU` ?
Outgoing: label 0

Incoming: In plain terms: is recorded RBNS R-value at least 1 for `CAAAGA` ?
Outgoing: label 1

Incoming: In plain terms: is recorded RBNS R-value at least 1 for `CGAUGU` ?
Outgoing: label 1

Incoming: In plain terms: is recorded RBNS R-value at least 1 for `UGCUAU` ?
Outgoing: label 0

Incoming: In plain terms: is recorded RBNS R-value at least 1 for `CACCCC` ?
Outgoing: label 1

Incoming: In plain terms: is recorded RBNS R-value at least 1 for `UGAGAC` ?
Outgoing: label 1

Incoming: In plain terms: is recorded RBNS R-value at least 1 for `AAAAAG` ?
Outgoing: label 1

Incoming: In plain terms: is recorded RBNS R-value at least 1 for `CUUGAC` ?
Outgoing: label 1

Incoming: In plain terms: is recorded RBNS R-value at least 1 for `CCGAGC` ?
Outgoing: label 1

Incoming: In plain terms: is recorded RBNS R-value at least 1 for `CGAGAC` ?
Outgoing: label 1

Incoming: In plain terms: is recorded RBNS R-value at least 1 for `ACGAGU` ?
Outgoing: label 1

Incoming: In plain terms: is recorded RBNS R-value at least 1 for `GAGAAC` ?
Outgoing: label 1

Incoming: In plain terms: is recorded RBNS R-value at least 1 for `AACCCC` ?
Outgoing: label 1

Incoming: In plain terms: is recorded RBNS R-value at least 1 for `GUUGAU` ?
Outgoing: label 1

This collection of values is drawn from the supplement of paper PMC13392028.
